Tested on: M14 melanoma
ASSAY: NCI tumour cell line growth inhibition, 48 h
READOUT NAME: TGI

COMPOUND	RECORDED MEASUREMENT
CC(=O)Oc1ccc(Nn2c3ccccc3c3ccccc32)c(C)c1	74.3 µM
NC(=S)N/N=C(\CCC(=O)Nc1ccccc1[N+](=O)[O-])CC(=O)c1ccco1	> 100 µM
COc1cc(/C=C/C(=O)c2c(C)nc3ccccc3c2C)ccc1OCCCCOc1cc2c(cc1OC)C(=O)N1CCC[C@H]1C=N2	> 100 µM
[N-]=[N+]=CC(=O)OCC1NC(=O)C(COC(=O)C=[N+]=[N-])NC1=O (configuration not stated)	> 100 µM
CN1C(=O)CN2C(Cl)(Cl)C2(c2ccccc2)c2cc(Cl)ccc21 (configuration not stated)	> 100 µM
CC(=O)OCC1OC(OC(C)=O)C(Nc2ncc(-c3ccc(C)cc3)s2)C(OC(C)=O)C1OC(C)=O (configuration not stated)	33.4 µM

Here are 3 compounds. What values of TGI were reported for them?
1. c1ccc(-c2cc(-c3ccncc3)cc(-c3ccncc3)n2)cc1
2. C/C(=N/NC(=S)N1CC2CCC(CC2)C1)c1cnccn1
3. O=C1C=CC(=O)c2cc(Sc3ccccc3)c(=O)c(Sc3ccccc3)cc21

Given back:
["> 100 µM", "1.85 µM", "> 100 µM"]

// each compound listed below needs its TGI
1. S=C(Nc1ccc2c(c1)oc1ccccc12)c1cccs1
2. CCCn1c(=O)c2nn3c(=O)n(CCC)c(=O)c3nn2c1=O
3. O=C(O)CCC1CCc2cccc(OCC(=O)O)c2C1=O (configuration not stated)

Given back:
1: > 100 µM; 2: > 100 µM; 3: > 100 µM

* * *

Give TGI for every item shown.
Tested on: NCI-H460 lung
ASSAY: NCI tumour cell line growth inhibition, 48 h

COMPOUND	TGI
N#Cc1ccc(C(C2C(=O)NC(=O)NC2=O)C2C(=O)NC(=O)NC2=O)cc1	> 100 µM

Please go through the list and note TGI for each compound.
1. O=C(/C=C/c1nnc2n(Cc3ccccc3)c(=O)c3c4c(sc3n12)CCCC4)c1ccccc1
2. COc1ccc(-n2c(Cn3nnc(-c4cccnc4)n3)nn(C3OC(COC(=O)c4ccccc4)C(OC(=O)c4ccccc4)C3OC(=O)c3ccccc3)c2=S)cc1 (stereo not drawn)
3. CC(C)OC(=O)NNc1cccc(Cl)c1
4. CCCNCC(O)CNc1ccc(NCC(O)CNCCC)c2c1C(=O)c1ccccc1C2=O (stereo not drawn)
5. Cc1cc2c(cc1C)[n+](=O)c(C(=O)CC(=O)C(=O)Nc1ccccc1C(C)C)c(C)n2[O-]
6. CCN1C(=O)N(CC)C2C1NC(=S)N2/N=C/C=C/c1ccccc1OC (stereo not drawn)
7. COC(=O)[C@@H](C)C[C@H](Cc1ccccc1)NC(=O)c1csc([C@@H](C[C@H](C(C)C)N(C)C(=O)C2(NC(=O)[C@H]3CCCCN3C)CCC2)OC(C)=O)n1
8. Cc1ccc(NC(=O)/C(=N\NC(N)=S)C(C#N)c2ccccc2C)cc1C (stereo not drawn)

Given back:
> 100 µM
> 100 µM
> 100 µM
8.48 µM
> 100 µM
> 100 µM
> 25 µM
> 100 µM

Please report TGI for every entry that follows.
1. O=C1Nc2ccccc2/C1=C\c1c(-c2ccccc2)nc2n1CCS2
2. CCOC(=O)/C(=C/c1ccccc1Br)P(=O)(OCC)OCC
3. CC1=NC=C(O)c2ccccc2O1
4. CC1(C)SCc2nc3ccccc3n21

Given back:
["41.9 µM", "10.7 µM", "> 100 µM", "> 100 µM"]
